FYI, the data here is from patent US10188627B2.

- MEASUREMENT NOTES: Pharmacokinetic screening, iv
- Format: in vivo
- CONDITIONS USED: CD-1 mice, 3 mg/kg iv
REPORTED ENDPOINT: Mice_PK_IV_Cl (mL/min/kg)

COMPOUND	REPORTED ENDPOINT	MEASURED VALUE
C/C(=C\C(=O)O)CCCOc1ccccc1CN(C)C(=O)c1ccc(-c2ccco2)cc1	Mice_PK_IV_Cl	10.65
CN(Cc1ccccc1OCc1cccc(CC(=O)O)c1)C(=O)c1ccc(-c2ccco2)cc1	Mice_PK_IV_Cl	80.32

A. CN(Cc1ccccc1OCCC/C=C/C(=O)O)C(=O)c1ccc(-c2ccco2)cc1
B. CN(Cc1ccccc1OCCC[C@H]1C[C@H]1C(=O)O)C(=O)c1ccc(-c2ccco2)cc1 (single isomer, unassigned)
In terms of reported Mice_PK_IV_Cl, does A or B have the smaller number? Answer format: the label of the selected item. B

---

- MEASUREMENT NOTES: Pharmacokinetic screening, iv
- Format: in vivo
- CONDITIONS USED: CD-1 mice, 3 mg/kg iv
REPORTED ENDPOINT: Mice_PK_IV_AUC (0-inf) (ng·h/mL)

COMPOUND	Mice_PK_IV_AUC (0-inf) [ng·h/mL]
C/C(=C\CCCOc1ccccc1CN(C)C(=O)c1ccc(-c2ccco2)cc1)C(=O)O [Compound 8k]	12804.00
C/C(=C\COc1ccccc1CN(C)C(=O)c1ccc(-c2ccco2)c(F)c1)CCC(=O)O [Compound 8c]	1459.00
CN(Cc1ccccc1OCCC[C@H]1CC1C(=O)O)C(=O)c1ccc(-c2ccco2)cc1 (single isomer, unassigned) [Compound 8u]	30142.00
C/C(=C\COc1ccc(F)cc1CN(C)C(=O)c1ccc(-c2ccco2)cc1)CCC(=O)O [Compound 8g]	2195.00
CC(CCOc1ccccc1CN(C)C(=O)c1ccc(-c2ccco2)cc1)CCC(=O)O (stereo not drawn) [Compound 8h]	11843.00
CC(CCCCOc1ccccc1CN(C)C(=O)c1ccc(-c2ccco2)cc1)C(=O)O (stereo not drawn) [Compound 8o]	11397.00

I. CN(Cc1ccccc1/C=C/CCCCC(=O)O)C(=O)c1ccc(-c2ccco2)cc1 [Compound 8l]
II. C/C(=C\COc1ccccc1CN(C)C(=O)c1ccc(-c2ccc(C)o2)cc1)CCC(=O)O [Compound 8e]
Lower value of Mice_PK_IV_AUC (0-inf) belongs to which: I or II ? Provide the label of your selected option as the answer. II
(II: 2166.00 ng·h/mL, I: 5161.00 ng·h/mL)

A. CN(Cc1ccccc1OCc1cccc(CCC(=O)O)c1)C(=O)c1ccc(-c2ccco2)cc1 [Compound 8p]
B. CN(Cc1ccccc1OCc1cccc(CC(=O)O)c1)C(=O)c1ccc(-c2ccco2)cc1 [Compound 8q]
C. C/C(=C\C(=O)O)CCCOc1ccccc1CN(C)C(=O)c1ccc(-c2ccco2)cc1 [Compound 8i]
# desc sort on Mice_PK_IV_AUC (0-inf) across 3 compounds Please respond by ranking the labels in the order requested. C, B, A
(C: 4691.00 ng·h/mL, B: 622.50 ng·h/mL, A: 288.90 ng·h/mL)

A. CN(Cc1ccccc1OCCC/C=C/C(=O)O)C(=O)c1ccc(-c2ccco2)cc1 [Compound 8cc]
B. C/C(=C\COc1ccccc1CN(C)C(=O)c1ccc(-c2ccco2)c(Cl)c1)CCC(=O)O [Compound 8d]
Between the two listed entries A and B , which has its Mice_PK_IV_AUC (0-inf) at the higher number? Write the label of whichever entry you select. B
(B: 1443.00 ng·h/mL, A: 748.00 ng·h/mL)
